Data origin: patent US20180155411A1

Consider the following binders and their measured Endpoint immunostaining concentration readings.
- Target Entity: T1, VP4 of rotavirus strain Wa (G1P[8]) (human rotavirus, UniProt P11193 1-775)
- T1 construct: whole, on cells
- T1 sequence (P11193 whole entry): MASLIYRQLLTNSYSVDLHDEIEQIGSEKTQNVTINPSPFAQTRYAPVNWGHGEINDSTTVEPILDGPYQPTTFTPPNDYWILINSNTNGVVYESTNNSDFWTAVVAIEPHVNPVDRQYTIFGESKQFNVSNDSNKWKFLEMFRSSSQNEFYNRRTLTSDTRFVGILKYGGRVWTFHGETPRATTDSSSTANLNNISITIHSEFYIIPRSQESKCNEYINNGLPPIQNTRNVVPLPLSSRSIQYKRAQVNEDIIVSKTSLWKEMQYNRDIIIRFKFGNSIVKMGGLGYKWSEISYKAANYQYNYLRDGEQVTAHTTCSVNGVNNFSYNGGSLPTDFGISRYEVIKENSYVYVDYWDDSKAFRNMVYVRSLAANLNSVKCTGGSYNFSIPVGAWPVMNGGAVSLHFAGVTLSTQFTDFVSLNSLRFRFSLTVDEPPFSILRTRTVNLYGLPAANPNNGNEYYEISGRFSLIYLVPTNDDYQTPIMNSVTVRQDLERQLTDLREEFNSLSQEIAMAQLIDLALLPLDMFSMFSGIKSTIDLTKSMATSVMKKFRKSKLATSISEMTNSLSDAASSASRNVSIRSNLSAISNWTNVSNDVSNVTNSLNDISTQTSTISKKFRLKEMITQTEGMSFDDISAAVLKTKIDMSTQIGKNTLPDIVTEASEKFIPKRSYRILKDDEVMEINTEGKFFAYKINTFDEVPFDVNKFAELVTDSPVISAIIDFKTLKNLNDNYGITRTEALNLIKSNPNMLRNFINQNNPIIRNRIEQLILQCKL
- Test Name: immunostaining, RV-infected MA104 cells

Binder: mAb #30 (antibody, V domains shown, also called mAb ID: 30; Mab No. 30) VH: QVQLVQSGAEVKKPGASVTVSCKASGYAFTSFYLHWVRQAPGQGLEWMGIINPSDGRTRYAQKFQGRVTMTSDTSTNTVYVELSSLRSEDTAIYYCARGAIGNYNAREALDVWGRGTTVTVSS VL: EIVMTQSPATLSVSPGESATLSCRASQSINSNLAWYQQKPGQAPRLLIFSASSRATGIPARFSGSGSGTEFTLTISSLQSDDFAVYYCQQYNIWPPEHTFGQGTRLQIK
Scale Unit: ng/mL
Endpoint immunostaining concentration: 5
--
Binder: mAb #41 (antibody, V domains shown, also called mAb ID: 41; Mab No. 41) VH: EVQLVESGGGPVQPGGSLKLSCAASGFTFSNYEMYWVRQAPGKGLEWVSYISTSPAITYYADSVRGRFTISRDNAKSSLYLHMNSLRAEDTAVYYCATISHQQFSSGWNAWFDPWGQGTLVTVSS VL: NFMLTQPHSVSESPGKTVTISCTGSSGSIASNYVQWYRQRPGSAPTTVIYENYQRPSGVPARFSGSIDRSSNSASLTISGLQTDDEADYYCQSYDNNNLWVFGGGTKLTVL
Scale Unit: ng/mL
Endpoint immunostaining concentration: 0.5
--
Binder: mAb #33 (antibody, V domains shown, also called mAb ID: 33; Mab No. 33) VH: DVQLVESGGGLVQPGGPSRLSCSASRFTFSNYAMYWVRQAPGKGLEYVSSISSDGGSTYYAESVKGRFTISRDNSKNTLYLQMRSLRAEDAAVYYCVTDVLRLPYSTGWSPGDFIYWGQGTLVTVSS VL: DIQMTQSPSILYASVGDRVTITCRASQSVSSWLAWYQQKPGKVPKLLIYQASTLENGVPSRFSGSGSGTEFILTISSLQPDDFATYYCQHYNVLWTFGQGTKVEI
Scale Unit: ng/mL
Endpoint immunostaining concentration: 50
--
Binder: mAb #2 (antibody, V domains shown, also called mAb ID: 2; Mab No. 2) VH: EVQLVESGGGLVKPGGSLRLSCKASGLIVSDAWMSWVRQSPGKGLEWVGRIKSEINGGTIDYAAPVKGRFTILRDDSKNTLYLQINSLKTEDTAVYYCTTRLLFSPWGQGTLVTVSS VL: QPVLTQPPSSSASPGESARLTCTLPSDINVAYYNIYWYQQKPGSPPRYLLYYYSDSDQGQGSGVPSRFSGSKDASANTGILFISGLQSEDEADYYCMIWTSNASMFGGGTKLTVL
Scale Unit: ng/mL
Endpoint immunostaining concentration: 5
